molecular target: full length human PAR-2 (human, UniProt P55085 26-397); experiment: cell-based or functional assay
Sequence (P55085 26-397 G138A limits assumed): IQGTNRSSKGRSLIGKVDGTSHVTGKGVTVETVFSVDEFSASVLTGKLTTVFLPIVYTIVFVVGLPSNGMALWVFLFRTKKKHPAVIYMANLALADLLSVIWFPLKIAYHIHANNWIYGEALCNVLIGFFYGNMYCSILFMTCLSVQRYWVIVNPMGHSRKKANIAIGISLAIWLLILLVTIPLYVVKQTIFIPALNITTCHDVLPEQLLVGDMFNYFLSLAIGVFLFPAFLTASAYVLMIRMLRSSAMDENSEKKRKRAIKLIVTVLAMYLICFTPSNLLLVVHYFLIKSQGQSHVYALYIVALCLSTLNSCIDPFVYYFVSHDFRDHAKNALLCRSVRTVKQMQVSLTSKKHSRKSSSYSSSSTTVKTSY
METRIC NAME: IC50, NF-kB-luciferase, 10 nM Human Trypsin 1

BINDER	RESULT
H4H591N (antibody, human IgG4, V domains shown, also called H2M591N variable regions) VH: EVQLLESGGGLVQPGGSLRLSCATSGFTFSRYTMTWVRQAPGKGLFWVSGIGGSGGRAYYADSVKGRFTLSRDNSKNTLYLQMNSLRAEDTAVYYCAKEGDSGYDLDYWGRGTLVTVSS VL: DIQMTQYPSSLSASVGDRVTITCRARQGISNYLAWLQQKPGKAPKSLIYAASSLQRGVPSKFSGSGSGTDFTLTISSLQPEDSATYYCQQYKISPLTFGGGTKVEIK	105 nM
